PROCEDURE DETAILS: in vitro
PROTOCOL CONDITIONS: human, hela cells, % viability
Sorting guide: entries reporting viability at 28.5 h, 10 µM beneath 90% go in the y pile, the rest go in the n pile.

{"columns": ["COMPOUND", "CLASS NAME"],
 "data": [
  ["O=C(O)/C=C/C(=O)Nc1ccccc1Br", "n"],
  ["Cc1ccccc1OCc1nnc(SCC(=O)N2CCOCC2)n1C", "n"],
  ["COc1nc2ccccc2nc1CCc1nc(-c2ccccc2)no1", "y"],
  ["COc1ccccc1C(NC(=O)N(C(C)C)C(C)C)c1nccn1C (stereo not shown)", "y"],
  ["CCn1c2ccccc2c2cc(C#N)c(=O)[nH]c21", "n"]
]}

Read the next record carefully.
Request: Does O=C1CC(C(=O)Nc2ccccc2)n2cnnc2N1 (stereo not shown) have viability at 28.5 h, 10 µM strictly under 90%?
Response: n

###

// reported viability at 28.5 h, 10 µM for each item listed
PROCEDURE DETAILS: in vitro
PROTOCOL CONDITIONS: human, hela cells, % viability
Report as a plain number; the unit % is understood.

{"columns": ["MOLECULE", "UNIT LABEL", "viability at 28.5 h, 10 µM"],
 "data": [
  ["Cc1ccc(OCCSc2nnc3[nH]c4ccccc4n23)cc1", "%", 96.2]
]}

API: the following record is the query input.
Input CC1CCCCN1Cc1ccc(-c2nnn(CC(=O)NCc3ccco3)n2)cc1 (centres unmarked) . Output viability at 28.5 h, 10 µM: 96

###

// reported viability at 28.5 h, 10 µM for each item listed
PROCEDURE DETAILS: in vitro
PROTOCOL CONDITIONS: human, hela cells, % viability
# output: numeric value plus its unit

{"columns": ["MOLECULE", "OUTCOME MEASURE", "REPORTED VALUE"],
 "data": [
  ["Cc1ccc(C(=O)CC(C(=O)O)c2c(C)[nH]c3ccccc23)cc1 (stereo not drawn) [CBK269337]", "viability at 28.5 h, 10 µM", "96.1%"],
  ["CCOC(CCNC(=O)c1cnc(Nc2ccccc2OC)c2ccccc12)OCC [CBK291184]", "viability at 28.5 h, 10 µM", "68.3%"]
]}

Input CC(C)(C)c1ccc(N(C2CCNCC2)S(=O)(=O)c2cccc(C(F)(F)F)c2)cc1 [CBK165056T] . Output viability at 28.5 h, 10 µM: 114%

Input COc1ccc(CCNc2c3c(c(C#N)c4nc5ccccc5n24)CCC3)cc1OC [CBK263147] . Output viability at 28.5 h, 10 µM: 97.9%

Input CC(NS(=O)(=O)c1ccc(Cl)cc1)C(=O)Nc1ccccc1Sc1ccccc1 (stereo not drawn) [CBK266984] . Output viability at 28.5 h, 10 µM: 98.4%

Input Cc1cc(-c2ccccc2)nn1C(CC(=O)O)C(=O)O (stereo not drawn) [CBK263480] . Output viability at 28.5 h, 10 µM: 91.6%

Input O=C(Nc1nc(-c2ccc(S(=O)(=O)N3CCCC3)cc2)cs1)C1COc2ccccc2O1 (stereo not drawn) [CBK096353] . Output viability at 28.5 h, 10 µM: 101%

Input O=C(NCc1ccncc1)c1ccc(-n2ccnc2)c(-n2cccc2)c1 [CBK285367] . Output viability at 28.5 h, 10 µM: 88.4%

Input CCCCC(c1nnn[nH]1)n1nnc2ccccc21 (stereo not drawn) [CBK023526] . Output viability at 28.5 h, 10 µM: 93.6%
